# Target desc: monoamine oxidase MAO-B (Homo sapiens, UniProt P27338)
# Sequence (P27338 whole entry): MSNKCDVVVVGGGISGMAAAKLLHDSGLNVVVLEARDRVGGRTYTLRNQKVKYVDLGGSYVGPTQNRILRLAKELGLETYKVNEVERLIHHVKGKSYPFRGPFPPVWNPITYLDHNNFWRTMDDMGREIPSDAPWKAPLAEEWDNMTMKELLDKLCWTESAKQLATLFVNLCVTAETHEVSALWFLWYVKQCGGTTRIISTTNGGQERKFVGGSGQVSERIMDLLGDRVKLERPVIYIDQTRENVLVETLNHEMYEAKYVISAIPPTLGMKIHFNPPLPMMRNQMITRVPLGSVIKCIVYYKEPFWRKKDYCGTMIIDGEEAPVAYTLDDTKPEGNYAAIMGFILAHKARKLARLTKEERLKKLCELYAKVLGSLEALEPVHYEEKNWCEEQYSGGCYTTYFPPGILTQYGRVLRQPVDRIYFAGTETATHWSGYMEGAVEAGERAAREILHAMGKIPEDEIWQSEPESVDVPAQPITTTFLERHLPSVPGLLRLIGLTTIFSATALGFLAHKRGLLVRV
# Assay text: Inhibition of Monoamine Oxidase MAO-B at compound concentration of 10.0 uM in the Eurofins-Panlabs enzyme assay (Eurofins_assay_140120)
# Design: substrate with concentration 50 uM Kynuramine, incubation time 60 min, incubation temperature 37 C
# Condition: recombinant human MAO-B expressed in insect Hi5 cells, probe kynuramine (50 uM), compound concentration 10 uM
Experimental endpoint: inhibition at 60 min, 10 µM

- N#CC1(c2ccccn2)CCN(Cc2cc(C(=O)O)c(=O)n3ccccc23)CC1: -5% (not active)

Data origin, for the record: ChEMBL document CHEMBL4507295
